Documented MIC Gram+ MRSA USA 300 across a set of molecules
Test system: MRSA USA 300
Type: cell-based, Staphylococcus aureus
Residues, ends and D or L forms follow the SMILES beside them. *: point of attachment. Octanoyl = CCCCCCCC(=O)*

Look over these answered cases.
>>> result("CC[C@H](C)[C@H](NC(=O)[C@H](CCCNC(=N)N)NC(=O)[C@H](CCC(=O)O)NC(=O)[C@H](CC(C)C)NC(=O)[C@H](Cc1ccccc1)NC(=O)[C@H](Cc1ccccc1)NC(=O)[C@@H](N)Cc1ccccc1)C(=O)N[C@@H](Cc1ccccc1)C(N)=O [SHf(E^5)] (H-FFFLERIF-NH2; N-terminus assumed)")
"> 100 µM"
>>> result("CC[C@H](C)[C@H](NC(=O)[C@H](CCCNC(=N)N)NC(=O)[C@H](CO)NC(=O)[C@H](CC(C)C)NC(=O)[C@H](Cc1ccccc1)NC(=O)[C@@H](N)Cc1ccccc1)C(=O)N[C@@H](Cc1ccccc1)C(N)=O [SHfΔ1F] (H-FFLSRIF-NH2)")
"> 100 µM"
>>> result("CCCCCCCC(=O)N[C@@H](Cc1ccccc1)C(=O)N[C@@H](CC(C)C)C(=O)N[C@@H](CO)C(=O)N[C@@H](CCCNC(=N)N)C(=O)N[C@H](C(=O)N[C@@H](Cc1ccccc1)C(N)=O)[C@@H](C)CC [OA-SHf] (Octanoyl-FLSRIF-NH2)")
"> 100 µM"

Moving on to the next molecule.
Field MIC Gram+ MRSA USA 300 (entry CC[C@H](C)[C@H](NC(=O)[C@H](CCCNC(=N)N)NC(=O)[C@H](CO)NC(=O)[C@H](CC(C)C)NC(=O)[C@@H](N)Cc1ccccc1)C(=O)N[C@@H](Cc1ccccc1)C(N)=O [SHfΔ2F] (H-FLSRIF-NH2; N-terminus assumed) ) reads > 100 µM
